Assay: NCI Yeast Anticancer Drug Screen. Data for the sgs1 mgt1 strain (AID 161);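 also: 0% = growth of cultures given vehicle only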
Settings: S. cerevisiae sgs1 mgt1 strain, at 50.0 µM
The panel holds about 79,000 compounds, 15% with a hit somewhere; the sample as a whole holds those more often. The source made the active and inactive calls. Rule as the data show it: active = growth inhibition above about 70%; inactive = the rest.
Would you mind answering with one of these outcomes? yes for active, no for inactive

What call does the record list for Nc1nc(Cl)c2nc(Cl)n(C3OC(CO)C(O)C3O)c2n1 (centres undefined) ?
no

What call does the record list for COc1cc(NCCC2CCCCN2C)c2ncccc2c1 (centres undefined) ?
no

What call does the record list for "CCCC(=O)Nc1cc(C(=O)N2C[C@H]3C[C@@]34C2=CC(=O)c2[nH]cc(C)c24)n(COC)c1" ?
no

What call does the record list for "C=CCCCCCCCCCOC=O" ?
no

What call does the record list for "Clc1ccc(C=Nc2ccc3c(c2)Cc2ccccc2-3)c(Cl)c1" ?
no

What call does the record list for "O=C(O)CCSc1nc2ccccc2s1" ?
no

What call does the record list for CCC(c1ccc2oc(C)cc2c1)C(CC)c1ccc2oc(C)cc2c1 (centres undefined) ?
no

What call does the record list for "O=S1(=O)C(c2ccccc2Cl)=C(O)C(O)=C1c1ccccc1Cl" ?
no

What call does the record list for "Nc1c(N=Nc2ccc(-c3ccc(N=Nc4ccc(O)c(C(=O)O)c4)cc3)cc2)cc(S(=O)(=O)O)c2ccccc12" ?
yes

What call does the record list for CC(C)OC(=O)C1CCC(=O)N1 (centres undefined) ?
no

Continuing:
What call does the record list for CCOc1ccc(C(C)c2cc3c(cc2OC)OCO3)cc1 (centres undefined) ?
no

What call does the record list for "COc1ncnc2ccccc12" ?
no

What call does the record list for "Oc1ccc(Cl)cc1CN1CCOCC1" ?
no

What call does the record list for CC(O)CNc1ncnc2ccccc12 (centres undefined) ?
no

What call does the record list for "Nc1ccc(Cl)cc1[N+](=O)[O-]" ?
no

What call does the record list for "COC(=O)c1c(O)ccc(O)c1C(=O)OC" ?
no

What call does the record list for CC1(C)CCCC(OC(=O)c2ccc([N+](=O)[O-])cc2)C1 (centres undefined) ?
no

What call does the record list for "Oc1ccc(Cn2c(-c3ccc(O)cc3)nc3ccccc32)cc1" ?
no

What call does the record list for "Cc1cc(Br)c(NC(=O)c2c(-c3c(Cl)cccc3Cl)noc2C)c(Br)c1" ?
no

What call does the record list for "CCN(Cc1ccccc1)c1ccccc1C" ?
no

What call does the record list for "CC(C)n1ncc2c(N)ncnc21" ?
no

What call does the record list for "COc1ccc(OCC(=O)N2CCCCC2)cc1" ?
no

What call does the record list for "CCCCCCCCCCCCCCCCCCNC(=O)Nc1ccccc1" ?
no

What call does the record list for CNC(=O)OCCC(OC(=O)NC)C1CCC2C3CCC4CC(OC(=O)c5ccccc5)CCC4(C)C3CCC12C (centres undefined) ?
no

----------
Catalogue of molecules with associated growth inhibition
Assay: NCI Yeast Anticancer Drug Screen. Data for the rad50 strain (AID 155);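 also: 0% = growth of vehicle-only cultures of the same strain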
Conditions: S. cerevisiae rad50 strain growth inhibition; at 50.0 µM; active compounds read high
Compounds without any hit were thinned out: in the full panel of roughly 79,000, 15% have a hit.
Note: unit % is implicit; provide only the numeric part.

What does the record list as growth inhibition for "CC1(C)CC(OP(=O)(OC2CC(C)(C)N(O)C(C)(C)C2)c2ccccc2)CC(C)(C)N1O" ?
32.1

What does the record list as growth inhibition for "CC(C)COC(=O)c1cc(O)[nH]c(=O)c1" ?
-19.6

What does the record list as growth inhibition for "CCOC1(c2ccccc2)CCNCC1" ?
21.9

What does the record list as growth inhibition for "C=CCNC(=S)Nc1cccc(OC(=O)Nc2ccc(Cl)c(Cl)c2)c1" ?
-16.4

Continuing:
What does the record list as growth inhibition for "CCCCN(C(=O)N(CC)CC)[Si](C)(C)C" ?
-17.6

What does the record list as growth inhibition for "CCOc1c(Cl)cc(Cl)cc1C(c1ccc(Cl)cc1S(=O)(=O)O)c1cc(Cl)cc(Cl)c1OCC" ?
99.2

What does the record list as growth inhibition for "CCSc1nc(COC(=O)NC)c(COC(=O)NC)n1C" ?
4.9

What does the record list as growth inhibition for Cc1ccc(C2[C@H]3C(=O)N(c4ccc(Cc5ccc(N6C(=O)[C@@H]7ON(c8ccccc8)C(c8ccc(C)cc8)[C@@H]7C6=O)cc5)cc4)C(=O)[C@H]3ON2c2ccccc2)cc1 (some centres not stated) ?
-23.9

What does the record list as growth inhibition for "O=C(O)c1nc2ccccc2c(=O)[nH]1" ?
-3.4

What does the record list as growth inhibition for COC(=O)C1C2CC3c4[nH]c5cc(OC)ccc5c4CCN3CC2CC(OC(=O)CCc2cc(OC)c(OC)c(OC)c2)C1OC (configuration not stated) ?
-3.35

What does the record list as growth inhibition for "O=S(=O)(c1ccc(N=Cc2cccs2)cc1)c1ccc(N=Cc2cccs2)cc1" ?
-13.2

What does the record list as growth inhibition for "O=C1C=C(Nc2cc(Cl)ccc2Cl)c2ccccc2C1=O" ?
9.75

What does the record list as growth inhibition for "CCOC(=O)/C(O)=C(\C#N)c1cc(C)ccc1C" ?
-7.5

What does the record list as growth inhibition for COC(=O)C(=O)C1(c2ccccc2)CCCC(CN(C)C)=C1O (configuration not stated) ?
3.35

What does the record list as growth inhibition for "Cc1c2ccccc2cc2c1ccc1c(Br)cccc12" ?
10.1

What does the record list as growth inhibition for "C/C(N=NS(=O)(=O)c1c(C)cc(C)cc1C)=C1\C=CC=CN1O" ?
-26.4

What does the record list as growth inhibition for "CC(C)(C)C(=O)/C=C/c1ccc(Oc2ccccc2)cc1" ?
27.8

----------
Catalogue of molecules with associated growth inhibition
Test: NCI Yeast Anticancer Drug Screen. Data for the bub3 strain (AID 167)
Details: S. cerevisiae bub3 mutant strain, at 50.0 µM, active compounds read high
The panel holds about 79,000 compounds, 15% with a hit somewhere; the sample as a whole holds those more often.
Note: unit % is implicit; provide only the numeric part.

What does the record list as growth inhibition for "Cc1cc(C)c(NC(=O)Nc2cccc(Cl)c2)c(C)c1" ?
3.35

What does the record list as growth inhibition for "O=C(O)c1cccc2c1C(=O)c1c(O)cccc1C2=O" ?
13.2

Continuing:
What does the record list as growth inhibition for "ClC(=Nc1ccccc1)c1cc(Cl)ccn1" ?
50

What does the record list as growth inhibition for "Cc1ccc(C)[nH]1" ?
-4.4

What does the record list as growth inhibition for "Clc1ccc2c(Cl)ncnc2c1I" ?
4.4

What does the record list as growth inhibition for COC(=O)CC(NC(=O)C(Cc1ccccc1)NC(=O)OCc1ccccc1)C(=O)O (centres undefined) ?
2.1

What does the record list as growth inhibition for "COc1ccc(C(=O)c2ccccc2)c(O)c1" ?
0.55

----------
Catalogue of compounds with associated growth inhibition
Experiment: NCI Yeast Anticancer Drug Screen. Data for the rad50 strain (AID 155);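 also: 0% = growth of vehicle-only cultures of the same strain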
Details: S. cerevisiae rad50 strain growth inhibition; at 50.0 µM; active compounds read high
Protocol: Growth inhibition of yeast strains with defined genetic alterations is measured as a screen for potential anti-cancer activity. Selected strains with alterations in DNA damage repair or cell cycle control were exposed to compounds and growth inhibition was measured relative to vehicle treated controls. The strain used in this assay is rad50
Compounds without any hit were thinned out: in the full panel of roughly 79,000, 15% have a hit. Activity calls are given as the source filed them. Rule as the data show it: active = growth inhibition above about 70%; inactive = the rest.

Study these solved cases before continuing.
What does the record list as growth inhibition for O=C(c1ccc(Cl)s1)C(Cl)C(Cl)c1ccc(Cl)s1 (stereo unspecified) ?
-20.5% (inactive)

What does the record list as growth inhibition for "Clc1cc(Cl)nc(Cl)n1" ?
2.4% (inactive)

What does the record list as growth inhibition for "CCc1nnc(CC)n1N1C(=O)CCC1=O" ?
24.1% (inactive)

Continuing:
What does the record list as growth inhibition for OC12CC/C(=N/OCc3ccccc3)CC1c1ccccc12 (stereo unspecified) ?
11.2% (inactive)

What does the record list as growth inhibition for "Cc1cc(C(C)(C)C)ccc1S(=O)(=O)/C=C/c1ccccc1" ?
-18.6% (inactive)

What does the record list as growth inhibition for "Cc1ccc(S(=O)(=O)N2C(=N)C(=S)N(C)C2=O)cc1" ?
-42.9% (inactive)

What does the record list as growth inhibition for "N#CCCN(CCC#N)c1ccc(C=Nc2ccc(F)cc2)cc1" ?
20% (inactive)

What does the record list as growth inhibition for CC(=O)c1cc2c(cc1C)C(C(C)C)CCC2(C)C (stereo unspecified) ?
3.75% (inactive)

What does the record list as growth inhibition for "COc1ccc(Cl)cc1NC(=O)Oc1ccc2ccccc2c1" ?
-5.8% (inactive)

What does the record list as growth inhibition for "CC(C)/C=N\n1c(N)c(C#N)c(C#N)c1C(C)C" ?
-4.9% (inactive)

What does the record list as growth inhibition for CCN1CCCC(Nc2cc(C)nc(/N=C(\N)Nc3ccc(Cl)c(Cl)c3)n2)C1 (stereo unspecified) ?
97.2% (active)

What does the record list as growth inhibition for O=C(/C=C/c1ccc(O)c(O)c1)OC1CC(O)(C(=O)O)CC(O)C1O (stereo unspecified) ?
4.75% (inactive)

What does the record list as growth inhibition for "O=C(NC1CCCCC1)OCc1c(COC(=O)NC2CCCCC2)c2cccn2c2c1cnn2-c1ccccc1" ?
3.7% (inactive)

What does the record list as growth inhibition for CCC(O)C(=O)O (stereo unspecified) ?
-28.6% (inactive)

What does the record list as growth inhibition for CCCC(=O)OCC(O)CO (stereo unspecified) ?
12.2% (inactive)

What does the record list as growth inhibition for "O=C(O)CCN(CCC(=O)O)S(=O)(=O)c1ccccc1" ?
-4.55% (inactive)
